target: BoNT/A LC (Clostridium botulinum, UniProt P0DPI0); experiment: biochemical; type: biochemical
Sequence (P0DPI0 2-448 limits assumed): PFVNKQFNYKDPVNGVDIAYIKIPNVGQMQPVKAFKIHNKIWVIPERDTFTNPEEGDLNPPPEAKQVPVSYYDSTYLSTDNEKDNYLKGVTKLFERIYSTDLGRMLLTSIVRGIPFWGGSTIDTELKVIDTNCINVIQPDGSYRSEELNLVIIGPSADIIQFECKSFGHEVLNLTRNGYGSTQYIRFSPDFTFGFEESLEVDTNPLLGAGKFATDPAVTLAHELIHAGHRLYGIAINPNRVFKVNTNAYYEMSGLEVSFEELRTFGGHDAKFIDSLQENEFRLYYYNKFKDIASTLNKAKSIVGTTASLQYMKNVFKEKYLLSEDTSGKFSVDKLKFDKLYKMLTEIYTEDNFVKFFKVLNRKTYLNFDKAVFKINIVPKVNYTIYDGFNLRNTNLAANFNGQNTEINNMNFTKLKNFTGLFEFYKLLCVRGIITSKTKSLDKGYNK
quantity-measured: BoNT/A LC inhibitory potency (in words)

> print(dat)
                                   compound                               measured.on            readout.value
1  N#C/C(=C\c1cccs1)c1nc2ccccc2[nH]1 [Compound 12c]  BoNT/A LC (Clostridium botulinum, UniProt P0DPI0)  no BoNT/A LC inhibition
2  Cc1ccc(/C=C(\C#N)c2nc3ccccc3[nH]2)s1 [Compound 12a]  BoNT/A LC (Clostridium botulinum, UniProt P0DPI0)  no BoNT/A LC inhibition
3  Cc1cc(/C=C(\C#N)c2nc3ccccc3[nH]2)sc1C [Compound 12b]  BoNT/A LC (Clostridium botulinum, UniProt P0DPI0)  no BoNT/A LC inhibition

Source listed as paper PMC3230330.
